Assay: amyloid nucleation score (Sup35N fusion, yeast selection) (log enrichment); library NNK3; higher = more nucleation; inactive = no reads after selection;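 further: zero at mode of non-aggregating sequences after 7 days selection at 30°C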
readout: amyloid nucleation score

{"columns": ["substance", "recorded_value"],
 "data": [
  ["GVEMHVFWDLA", "inactive"],
  ["VSTGTYFSVIKEEVRLGLLH", 0.537],
  ["YRLRSICSFLGVVSYG", "inactive"],
  ["LSLREE", "inactive"],
  ["YFQGWSMVCSDVSTGKSVVM", "inactive"],
  ["LVQSTRGSRSNTWACNERFV", "inactive"]
]}

Query string: Name the recorded amyloid nucleation score for SYCLTGTDSVINVIGAGPSQ .
Result string: inactive

Query string: Again, but for RKSSSVRFFEHCVVSDVWLV
Result string: inactive

Query string: Again, but for SWVVDITDRRSLFIDTPRFT
Result string: inactive

Query string: Again, but for TLLMMYKVGYLAMAIRMGGL
Result string: inactive

Query string: Again, but for SGFSYRFRDSMGLDKYRCAN
Result string: inactive

Query string: Again, but for RWNMLIDVHLNVYHRQDRWC
Result string: 0.636

Query string: Again, but for VCLHDRLGVHVGQIRLGYRC
Result string: inactive

Query string: Again, but for AAYAALQMSK
Result string: inactive

Query string: Again, but for WCNMVRVHMF
Result string: inactive

Query string: Again, but for PDVNVRGGGQLVV
Result string: inactive

Query string: Again, but for KVSWMFYRCSDNNN
Result string: 1.66

Query string: Again, but for KWDSKFRYLADGHNQLPC
Result string: 0.605

Query string: Again, but for AFTHVTSVMTVQDSLGLCLL
Result string: inactive

Query string: Again, but for SFYPLCRQAVTDMFNKHCFP
Result string: inactive

Query string: Again, but for FIRKSPWQRFDTHFGIIDFK
Result string: 0.778

Query string: Again, but for PTAVVVGYHSYVTFRAVKCV
Result string: inactive

---

Test: amyloid nucleation score (Sup35N fusion, yeast selection) (log enrichment); library NNK3; higher = more nucleation; inactive = no reads after selection
readout: amyloid nucleation score

Would you please look over these solved cases?
{"columns": ["substance", "recorded_value"],
 "data": [
  ["NCYRRTLHSSWREWIWPIGC", -0.062],
  ["GVGSRG", "inactive"],
  ["NQQWISTRVVLKAPAFERRT", "inactive"],
  ["MNLDNFLFKVCLGSCF", "inactive"],
  ["WCPSQDNFWQNFLF", -0.079],
  ["DTSGSCSILTRSRNMSFWRR", "inactive"],
  ["RLQPFVHFVYCWESIVVCMW", 1.56],
  ["IIVFLRLSPELCVMCVRR", "inactive"]
]}

Query string: Name the recorded amyloid nucleation score for TEHKVSFPHFVKYKPSLSSY .
Result string: inactive

Query string: Again, but for EGPVSGPC
Result string: inactive

---

Test: amyloid nucleation score (Sup35N fusion, yeast selection) (log enrichment); library NNK3; higher = more nucleation; inactive = no reads after selection
readout: amyloid nucleation score

Would you please look over these solved cases?
{"columns": ["entry_sequence", "amyloid nucleation score"],
 "data": [
  ["IVLIKDYYSIRFDSEGIVDI", "inactive"],
  ["RDDGEALVTSARRVQTSYPA", -0.145],
  ["CLSLFTSGIV", "inactive"],
  ["RSHECGGSLMFVKLGCG", "inactive"],
  ["KREECILWLPLGNLLYNVLR", "inactive"]
]}

Query string: Name the recorded amyloid nucleation score for EVFHIRMSVF .
Result string: -0.577

Query string: Again, but for SPWAMGCECLVRGGLEKYAK
Result string: inactive

Each recorded value in this set is attributed to the supplement of paper PMC12042874.
